All figures here come from patent US20240294651A1.

Target: human CXCR4 (cell-expressed) (human, UniProt P61073 1-352)
Sequence (P61073 whole entry): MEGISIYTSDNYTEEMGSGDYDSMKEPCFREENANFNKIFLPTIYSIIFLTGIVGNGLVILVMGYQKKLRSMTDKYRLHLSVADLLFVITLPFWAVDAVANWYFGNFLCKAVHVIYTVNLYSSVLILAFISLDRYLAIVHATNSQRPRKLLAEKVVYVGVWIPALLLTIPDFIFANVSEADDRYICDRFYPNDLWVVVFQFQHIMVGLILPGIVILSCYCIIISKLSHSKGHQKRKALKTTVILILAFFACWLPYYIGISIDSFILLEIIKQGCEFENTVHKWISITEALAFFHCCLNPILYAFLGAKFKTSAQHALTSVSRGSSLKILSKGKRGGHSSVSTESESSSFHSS
Experiment: cell-based or functional assay
Quick list: IC50, beta-arrestin reporter assay, Tango CXCR4-bla U2OS cells, 30 nM CXCL12 per entry.
Readout Type: IC50, beta-arrestin reporter assay, Tango CXCR4-bla U2OS cells, 30 nM CXCL12

Binder	Reported Value
CL-82658 (antibody, human IgG4 S228P, kappa, V domains shown, Tested in human IgG4-PE format; also called CL-82658 (IgG4-PE format)) VH: QVQLVESGGGVVQPGRSLRLSCAASGFSFSSYGMHWVRQAPGKGLEWVAVISYDGSNKYYADSVKGRFTISRDNSKNTLYLQMNSLRGEDTAVYYCSKGSLTPRRGYYYSYGMDVWGQGTTVTVSS VL: DIQMTQSPSSLSASVGDRVTITCRASQGIRNDLSWYQQKPGKAPKRLIYAASSLQSGVPSRFSGSGSGTEFTLTISSLQPEDFATYYCLQHNGYPFTFGPGTKVDIKR	0.35 nM
CL-82551 (antibody, human IgG4 S228P, kappa, V domains shown, Tested in human IgG4-PE format) VH: QVQLVQSGAEVKKPGASVKVSCKASGYTFTSYDINWVRQATGQGLEWMGWMNPNSGNTGYAQKFQGRVTMTRNTSISTAYMELSSLRSEDTAVYYCARGRGYYGSGSHYRGYYYYGLDVWGQGTTVTVSS VL: DIQMTQSPSTLSASVGDRVTITCRASQSISSWLAWYQQKPGKAPKVLIYKASSLKSGVPSRFSGSGSGTEFTLTVSSLQPDDFATYYCQQYNSYSWTFGQGTKVEIKR	1.56 nM
